- assay: Cytotoxicity against mouse L929 cells incubated for 1 day by MTT assay
- Type: toxicity, cell-based
measured.attribute: IC50 at 1 day (nM)
Your answer is read as nM, so omit the unit and give the number.

Report IC50 at 1 day for Cc1nc(-c2ccc(OCC(C)C)c(C#N)c2)sc1C(=O)NCCCCCCC(=O)NO please.
2230

* * *

- tgt: Xanthine dehydrogenase/oxidase (Bos taurus, UniProt P80457)
- Sequence (P80457 whole entry): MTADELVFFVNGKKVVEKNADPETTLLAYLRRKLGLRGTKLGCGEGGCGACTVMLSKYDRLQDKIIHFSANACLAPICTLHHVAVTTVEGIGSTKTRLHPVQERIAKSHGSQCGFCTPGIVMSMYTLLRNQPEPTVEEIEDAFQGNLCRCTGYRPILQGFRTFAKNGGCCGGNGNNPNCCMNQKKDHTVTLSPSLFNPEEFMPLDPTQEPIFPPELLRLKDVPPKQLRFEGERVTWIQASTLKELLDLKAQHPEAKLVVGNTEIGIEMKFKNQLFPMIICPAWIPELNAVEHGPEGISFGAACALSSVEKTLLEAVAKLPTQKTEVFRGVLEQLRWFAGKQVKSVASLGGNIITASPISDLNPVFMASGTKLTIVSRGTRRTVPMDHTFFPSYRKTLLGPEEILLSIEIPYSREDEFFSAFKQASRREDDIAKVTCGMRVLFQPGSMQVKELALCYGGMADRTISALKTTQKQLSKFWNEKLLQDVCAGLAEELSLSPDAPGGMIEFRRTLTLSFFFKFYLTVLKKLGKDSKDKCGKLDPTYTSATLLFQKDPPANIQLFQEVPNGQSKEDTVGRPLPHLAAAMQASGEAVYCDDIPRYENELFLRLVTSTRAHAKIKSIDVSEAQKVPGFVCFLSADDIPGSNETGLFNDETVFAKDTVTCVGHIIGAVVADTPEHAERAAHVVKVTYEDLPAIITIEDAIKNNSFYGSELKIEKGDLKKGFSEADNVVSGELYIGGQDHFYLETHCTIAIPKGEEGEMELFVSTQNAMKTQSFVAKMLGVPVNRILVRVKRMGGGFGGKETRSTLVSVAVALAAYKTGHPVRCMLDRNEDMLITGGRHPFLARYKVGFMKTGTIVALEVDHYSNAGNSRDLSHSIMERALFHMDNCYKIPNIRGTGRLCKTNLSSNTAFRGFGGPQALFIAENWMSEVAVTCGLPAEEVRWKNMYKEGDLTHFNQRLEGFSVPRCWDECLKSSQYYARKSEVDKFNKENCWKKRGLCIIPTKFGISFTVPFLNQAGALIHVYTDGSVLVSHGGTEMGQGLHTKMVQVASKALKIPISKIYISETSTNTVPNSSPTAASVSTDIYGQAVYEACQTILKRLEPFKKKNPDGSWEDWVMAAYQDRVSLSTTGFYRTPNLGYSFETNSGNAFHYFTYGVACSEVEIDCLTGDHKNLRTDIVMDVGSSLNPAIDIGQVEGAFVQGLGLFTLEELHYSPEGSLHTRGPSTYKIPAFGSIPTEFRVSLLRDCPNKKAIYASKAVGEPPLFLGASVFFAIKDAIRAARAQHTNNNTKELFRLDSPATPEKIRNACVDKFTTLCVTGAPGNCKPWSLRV
Entries and their IC50 values follow.
Your answer is read as nM, so omit the unit and give the number.

> print(dat)
                           smiles.structure  observed.value
1  Cc1nc(-c2ccc(OCC(C)C)c(C#N)c2)sc1C(=O)NCCCCCCC(=O)Nc1ccccc1N             850
2  Cc1nc(-c2ccc(OCC(C)C)c(C#N)c2)sc1C(=O)NCCCCCC(=O)NO             6.2

Report IC50 for Cc1nc(-c2ccc(OCC(C)C)c(C#N)c2)sc1C(=O)NCCCCCC(=O)Nc1ccccc1N please.
700

Report IC50 for Cc1nc(-c2ccc(OCC(C)C)c(C#N)c2)sc1C(=O)NO please.
3.3

* * *

# Xanthine dehydrogenase/oxidase (Bos taurus): IC50 values follow

Recall the recorded IC50 for Cc1nc(-c2ccc(OCC(C)C)c(C#N)c2)sc1C(=O)NCc1ccc(NC(=O)CCCCCCCCC(=O)Nc2ccccc2N)cc1 with Xanthine dehydrogenase/oxidase (Bos taurus) and state it.
> 2 µM

Recall the recorded IC50 for Cc1nc(-c2ccc(OCC(C)C)c(C#N)c2)sc1C(=O)NCc1ccc(NC(=O)CCCCCCC(=O)NO)cc1 with Xanthine dehydrogenase/oxidase (Bos taurus) and state it.
> 2 µM

Recall the recorded IC50 for Cc1nc(-c2ccc(OCC(C)C)c(C#N)c2)sc1C(=O)NCc1ccc(C(=O)NCCCCCCC(=O)Nc2ccccc2N)cc1 with Xanthine dehydrogenase/oxidase (Bos taurus) and state it.
> 2 µM
